Give measured % activity for each item. Keep answers brief.
Measured Target: PRK2(h) (Homo sapiens, UniProt Q16513)
Sequence (Q16513 whole entry): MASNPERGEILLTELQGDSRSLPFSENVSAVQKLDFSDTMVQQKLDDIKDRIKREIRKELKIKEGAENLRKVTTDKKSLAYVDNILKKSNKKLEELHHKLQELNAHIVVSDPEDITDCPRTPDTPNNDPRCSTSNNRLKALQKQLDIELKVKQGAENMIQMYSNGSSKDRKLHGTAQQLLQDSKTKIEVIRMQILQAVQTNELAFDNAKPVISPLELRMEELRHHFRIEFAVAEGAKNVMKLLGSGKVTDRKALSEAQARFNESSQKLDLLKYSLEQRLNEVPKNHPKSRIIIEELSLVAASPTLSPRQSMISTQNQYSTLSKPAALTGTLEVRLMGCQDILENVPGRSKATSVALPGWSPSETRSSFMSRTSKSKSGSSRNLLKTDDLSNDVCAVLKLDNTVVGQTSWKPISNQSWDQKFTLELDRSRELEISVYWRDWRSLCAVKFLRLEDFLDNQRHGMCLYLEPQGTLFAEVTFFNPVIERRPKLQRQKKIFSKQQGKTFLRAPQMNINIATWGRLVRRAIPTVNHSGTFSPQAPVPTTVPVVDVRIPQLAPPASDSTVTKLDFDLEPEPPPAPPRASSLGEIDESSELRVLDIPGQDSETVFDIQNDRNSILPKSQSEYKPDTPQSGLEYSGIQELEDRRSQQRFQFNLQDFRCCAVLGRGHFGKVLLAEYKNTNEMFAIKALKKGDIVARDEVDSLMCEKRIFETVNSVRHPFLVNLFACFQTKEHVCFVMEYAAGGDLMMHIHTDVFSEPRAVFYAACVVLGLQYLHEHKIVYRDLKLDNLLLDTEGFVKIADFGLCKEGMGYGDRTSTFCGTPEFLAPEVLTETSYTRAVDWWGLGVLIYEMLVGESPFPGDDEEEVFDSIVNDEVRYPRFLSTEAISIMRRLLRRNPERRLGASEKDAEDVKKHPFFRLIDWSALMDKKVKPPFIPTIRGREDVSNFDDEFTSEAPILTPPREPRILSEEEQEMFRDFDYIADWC
Protocol Text: Kinase Profiling Assay
Type: biochemical
Assay Context: 100 μM
Numbers only, in %.

Sample answers from the record:
1. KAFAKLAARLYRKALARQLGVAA [MMI-0400] | 27
2. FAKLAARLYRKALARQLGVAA [MMI-0300] | 33
3. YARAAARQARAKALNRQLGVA [MMI-0200] | 74

q: Fill in % activity for record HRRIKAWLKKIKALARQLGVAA [MMI-0500]
a: 7

---

Measured Target: DYRK2(h) (Homo sapiens, UniProt Q92630)
Sequence (Q92630 1-601): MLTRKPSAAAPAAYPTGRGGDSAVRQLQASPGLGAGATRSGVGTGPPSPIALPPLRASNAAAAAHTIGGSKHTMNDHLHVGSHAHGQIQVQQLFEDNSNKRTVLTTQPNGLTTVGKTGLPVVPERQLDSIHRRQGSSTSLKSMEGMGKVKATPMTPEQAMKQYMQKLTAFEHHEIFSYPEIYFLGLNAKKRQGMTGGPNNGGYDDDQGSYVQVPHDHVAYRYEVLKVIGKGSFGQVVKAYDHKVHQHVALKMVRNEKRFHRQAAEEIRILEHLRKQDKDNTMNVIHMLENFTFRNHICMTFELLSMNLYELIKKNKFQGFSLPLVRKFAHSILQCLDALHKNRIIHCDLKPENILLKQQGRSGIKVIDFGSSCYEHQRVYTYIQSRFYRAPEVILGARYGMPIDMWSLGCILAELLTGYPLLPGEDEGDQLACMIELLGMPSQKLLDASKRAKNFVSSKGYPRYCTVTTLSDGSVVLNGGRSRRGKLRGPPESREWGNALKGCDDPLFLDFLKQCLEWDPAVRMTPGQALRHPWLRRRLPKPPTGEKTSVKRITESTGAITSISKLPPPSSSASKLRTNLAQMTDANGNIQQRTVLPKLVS
Protocol Text: Kinase Profiling Assay
Type: biochemical
Assay Context: 100 μM
Exercise: state measured % activity for each of the sequences provided.
One number for each entry, in %.

Solved entries (count: 3):
1) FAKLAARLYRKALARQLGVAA [MMI-0300] | 155
2) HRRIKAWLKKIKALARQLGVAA [MMI-0500] | 127
3) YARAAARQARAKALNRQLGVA [MMI-0200] | 142

Next, consider the following sequence.
q: Dear colleague, please send me the reported % activity for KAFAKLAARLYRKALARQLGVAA [MMI-0400] when you can.
a: 195
